- ASSAY_INFO: Plasma levels by HPLC/MS/MS after administration
- Assay type: in vivo
- CONDITION_LABEL: male, Sprague-Dawley, rat, fasted rats, oral, solution or suspension, read-out: Estimated bioavailability
MEASURED_METRIC: bioavailability

Name the reported bioavailability value associated with the compound `Cc1cccc2c1N(C(=O)CSc1nc3cc(Cl)ccc3s1)CCC2`
~5%

---

- ASSAY_INFO: Plasma levels by HPLC/MS/MS after administration
- Assay type: in vivo
- CONDITION_LABEL: rat, male Sprague-Dawley rats, read-out: Estimated half-life (converted)
MEASURED_METRIC: half-life (h)
Numeric answer only, unit h assumed.

// lookup half-life for Cc1cccc2c1N(C(=O)CSc1nc3cc(Cl)ccc3s1)CCC2 [Compound 15]
1.6

---

- ASSAY_INFO: Plasma levels by HPLC/MS/MS after administration
- Format: in vivo
- CONDITION_LABEL: rat, male Sprague-Dawley rats, read-out: Estimated volume of distribution
MEASURED_METRIC: Vd

Which Vd value is on record for Cc1cccc2c1N(C(=O)CSc1nc3cc(Cl)ccc3s1)CCC2 [Compound 15] ?
5.51 L/kg

---

- EXPERIMENTAL_SYSTEM: TRPV1 (hTRPV1) (Homo sapiens, UniProt Q8NER1)
- Construct: expressed in transfected cells
- Sequence (Q8NER1 whole entry): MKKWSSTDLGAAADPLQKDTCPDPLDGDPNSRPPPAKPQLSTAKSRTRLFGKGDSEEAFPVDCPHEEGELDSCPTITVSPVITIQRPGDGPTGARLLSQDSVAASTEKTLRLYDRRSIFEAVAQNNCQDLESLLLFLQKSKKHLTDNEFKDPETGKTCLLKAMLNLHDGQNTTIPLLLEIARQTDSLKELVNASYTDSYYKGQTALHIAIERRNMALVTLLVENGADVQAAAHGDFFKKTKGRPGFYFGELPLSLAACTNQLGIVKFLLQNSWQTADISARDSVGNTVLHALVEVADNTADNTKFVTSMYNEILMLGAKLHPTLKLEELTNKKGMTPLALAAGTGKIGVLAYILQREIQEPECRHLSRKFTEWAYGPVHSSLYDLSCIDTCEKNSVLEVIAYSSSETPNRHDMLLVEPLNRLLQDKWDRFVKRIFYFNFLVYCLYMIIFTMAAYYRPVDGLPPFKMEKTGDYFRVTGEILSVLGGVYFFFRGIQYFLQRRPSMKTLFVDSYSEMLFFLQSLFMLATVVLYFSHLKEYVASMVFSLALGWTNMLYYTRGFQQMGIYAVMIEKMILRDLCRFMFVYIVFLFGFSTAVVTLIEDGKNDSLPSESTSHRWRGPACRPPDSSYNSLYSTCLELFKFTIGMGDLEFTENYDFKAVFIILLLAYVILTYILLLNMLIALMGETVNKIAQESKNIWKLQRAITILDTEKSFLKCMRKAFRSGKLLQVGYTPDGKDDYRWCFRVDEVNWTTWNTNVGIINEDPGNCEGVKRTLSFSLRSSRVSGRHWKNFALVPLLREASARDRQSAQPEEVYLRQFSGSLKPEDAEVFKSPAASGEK
- ASSAY_INFO: Selectivity patch clamp, TRPV1 channel
- Type: cell-based
- CONDITION_LABEL: fold selective for TRPV3 over TRPV1; tested up to 30 μM, IC50 estimated
MEASURED_METRIC: TRPV3:TRPV1 fold selectivity

For the compound shown here, `Cc1cccc2c1N(C(=O)CSc1nc3cc(Cl)ccc3s1)CCC2` , give the reported TRPV3:TRPV1 fold selectivity.
>1000 fold

For the compound shown here, `O=C(CSc1nc2ccccc2s1)N1CCCc2ccccc21` , give the reported TRPV3:TRPV1 fold selectivity.
>40 fold

Can you look up the measured TRPV3:TRPV1 fold selectivity of `Cc1cccc2c1N(C(=O)CSc1nc3ccccc3s1)CCC2` for me?
>200 fold

Requested field: TRPV3:TRPV1 fold selectivity. Item: `N.N.N.N.N.N.N.N.N.N.N.N.N.N.[Cl-].[Cl-].[Cl-].[Cl-].[Cl-].[Cl-].[O-2].[O-2].[Ru+3].[Ru+3].[Ru+4]`
3 fold selective
